Test: label from the status in PepcDB records

record-sequence: MFFSEARARSRTWEASPSEHRKWVEVFKACDEDHKGYLSREDFKTAVVMLFGYKPSKIEVDSVMSSINPNTSGILLEGFLNIVRKKKEAQRYRNEVRHIFTAFDTYYRGFLTLEDFKKAFRQVAPKLPERTVLEVFREVDRDSDGHVSFRDFEYALNYGQKEA
protein production: failed
//
record-sequence: VLASILLSQAAYESNYGSSLLSVKYHNIYSLPARPGQEHIYLKDNVYSKGKWQYQKVDFAVFRDWSSSMSSYLEELRQGRWGESTYKEVAGTTSYKVAAEKLQAAGFNSDPDYTKHLISIIETYNL
protein production: failed
//
record-sequence: MPPAPVFLLLAAGASRRMRGADKLMEPVAGEPLLRLQARRGIAAGLAVLVTLPPDRPERWAALEGLAVQRLPVPDAAEGLAASIRAGVAAAPPDAAVLLLLADLPEIEATDLAQMAALHREAPKALLRATTADGRPGHPILFPADLRPELQALKGDQGARRILERAAGRLRLVPLAGTRAVTDLDTPEDWALWRARTGHLEHHHHHH
protein production: failed
